System: GTPase KRas (Homo sapiens), P01116 [G12D]
Sequence (P01116 whole entry G12D, looked up): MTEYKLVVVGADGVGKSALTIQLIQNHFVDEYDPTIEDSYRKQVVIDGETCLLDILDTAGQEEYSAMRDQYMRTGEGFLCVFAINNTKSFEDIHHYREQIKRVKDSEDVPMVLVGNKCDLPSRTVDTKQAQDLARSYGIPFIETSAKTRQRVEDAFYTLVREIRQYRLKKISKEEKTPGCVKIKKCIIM
Assay Info: Protac activity at VHL/KRAS G12D in human ASPC1 cells assessed as induction of KRAS G12D protein degradation at 1 uM incubated for 24 hrs by luminescence based analysis relative to control
Assay type: cell-based
Field: Activity. Provide a value for each of the molecules that follow.
Answers are plain numbers, in %.

Examples with answers:
INSERT INTO results (molecule, unit_string, experimental_result) VALUES
  ('Cc1ncsc1-c1ccc([C@H](C)NC(=O)[C@@H]2C[C@@H](O)CN2C(=O)[C@@H](NC(=O)CCOCCCN2CCC[C@H]2COc2nc(N3CC4CCC(C3)N4)c3cc(Cl)c(-c4ccc(F)c5sc(N)nc45)c(F)c3n2)C(C)(C)C)cc1', '%', 51.3),
  ('Cc1cc(N)nc(-c2c(Cl)cc3c(N4CC5CCC(C4)N5)nc(OC[C@@H]4CCCN4CCCOCCCOc4cc(-c5scnc5C)ccc4CNC(=O)[C@@H]4C[C@@H](O)CN4C(=O)[C@H](NC(=O)C4(F)CC4)C(C)(C)C)nc3c2F)c1C(F)(F)F', '%', -5.46),
  ('Cc1cc(N)nc(-c2c(Cl)cc3c(N4CC5CCC(C4)N5)nc(OC[C@@H]4CCCN4CCCOCCC(=O)N[C@H](C(=O)N4C[C@H](O)C[C@H]4C(=O)NCc4ccc(-c5scnc5C)cc4)C(C)(C)C)nc3c2F)c1C(F)(F)F', '%', -0.69),
  ('Cc1ncsc1-c1ccc([C@H](C)NC(=O)[C@@H]2C[C@@H](O)CN2C(=O)[C@@H](NC(=O)CCCCN2CCC[C@H]2COc2nc(N3CC4CCC(C3)N4)c3cc(Cl)c(-c4ccc(F)c5sc(N)nc45)c(F)c3n2)C(C)(C)C)cc1', '%', 38.1);

Please report Activity for every entry that follows.
1. Cc1cc(N)nc(-c2c(Cl)cc3c(N4CC5CCC(C4)N5)nc(OC[C@@H]4CCCN4CCCOCCC(=O)N[C@H](C(=O)N4C[C@H](O)C[C@H]4C(=O)N[C@@H](C)c4ccc(-c5scnc5C)cc4)C(C)(C)C)nc3c2F)c1C(F)(F)F
2. Cc1cc(N)nc(-c2c(Cl)cc3c(N4CC5CCC(C4)N5)nc(OC[C@@H]4CCCN4CCCCCCCN4CCC(c5cc(F)cc6c5CN(C5CCC(=O)NC5=O)C6=O)CC4)nc3c2F)c1C(F)(F)F (stereo partly specified)

29.3
-22.9
